Provenance of the data: the supplement of paper PMC7125110

B1: glmS ribozyme (parent)
chain: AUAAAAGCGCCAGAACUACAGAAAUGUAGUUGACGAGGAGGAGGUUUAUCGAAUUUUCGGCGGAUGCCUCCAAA

Variants of: B1
Test: self-cleavage kobs at 160 uM GlcN6P; higher = faster cleavage; RNA array
Settings: with glucosamine-6-phosphate
This sample holds only a part of the variants without activity.
Listing of recorded self-cleavage kobs at 160 uM GlcN6P by entry.

primary-sequence: AUAAAAGCGGCAGAACUACAGAAAUGUAGUUGACGAGGAGGAGGUUUAUCGAAUUUUCGGCGGAGGCCUCCAAA [C10G U65G]
self-cleavage kobs at 160 uM GlcN6P: < 1e-05 s⁻¹

primary-sequence: AUAAAAGUGCCAGAACUACAGAAAUGUAGUUGACGAGGAGGAGGUUUAUCGAAUUUUCUGCGCAUGCCUCCAAA [C8U G59U G63C]
self-cleavage kobs at 160 uM GlcN6P: < 1e-05 s⁻¹

primary-sequence: AUAAAAGCGCCAGAACUACAGAAAUGUAGUUGACGAGGGGGAUGUUUAUCGAAUUUUAGGCGGAUGCCUCCAAA [A39G G43U C58A]
self-cleavage kobs at 160 uM GlcN6P: < 1e-05 s⁻¹

primary-sequence: AUAAAAGCGCCAGAACUACAGAAAUGUAGUUGAGGAGGAGAAGGUUUAUCGAAUUUUCGGCGGAUGCCUCCAAA [C34G G41A]
self-cleavage kobs at 160 uM GlcN6P: < 1e-05 s⁻¹

primary-sequence: AUAAAAGCGCCAGAACUACAGAAAUGUAGUUGACGAGGAGGAGGAUUAUCGUAUUUUCGGCGGAGGCCUCCAAA [U45A A52U U65G]
self-cleavage kobs at 160 uM GlcN6P: < 1e-05 s⁻¹

primary-sequence: AUAAAAGCGCCAGAACUACAGAAAUUUAAUUGACGAGGAGGAGGUUUAUCGAAAUUUCGGCGGAUGCCUUUAAA [G26U G29A U54A C70U C71U]
self-cleavage kobs at 160 uM GlcN6P: 0.000121 s⁻¹

IN: Look up and state reported self-cleavage kobs at 160 uM GlcN6P for AUAAAAGCGCCAGAACUACAGAAAUGUAGUUGACGAGGAGUAGGUUUAUCCAAUUUUCGGCAGAUGCUUCCAAA [G41U G51C G62A C68U]
OUT: < 1e-05 s⁻¹

IN: Look up and state reported self-cleavage kobs at 160 uM GlcN6P for AUAAAAGCGCCAGAACUACAGAAAUGUAGUUGACGAGCAGGAGGUUUAUCGAAUUUUCGGCGGAGGCCUCCAAA [G38C U65G]
OUT: < 1e-05 s⁻¹

IN: Look up and state reported self-cleavage kobs at 160 uM GlcN6P for AUAAAAGCGCCAGCACUACAGAAAUGUAGUGGACGAGGAGGAGGUUUAUCGAAUUUUCGGCGGAUGCCUCCAAA [A14C U31G]
OUT: 0.00145 s⁻¹
